- SYSTEM_NAME: human RAF1 (Homo sapiens)
- Sequence (P04049 whole entry): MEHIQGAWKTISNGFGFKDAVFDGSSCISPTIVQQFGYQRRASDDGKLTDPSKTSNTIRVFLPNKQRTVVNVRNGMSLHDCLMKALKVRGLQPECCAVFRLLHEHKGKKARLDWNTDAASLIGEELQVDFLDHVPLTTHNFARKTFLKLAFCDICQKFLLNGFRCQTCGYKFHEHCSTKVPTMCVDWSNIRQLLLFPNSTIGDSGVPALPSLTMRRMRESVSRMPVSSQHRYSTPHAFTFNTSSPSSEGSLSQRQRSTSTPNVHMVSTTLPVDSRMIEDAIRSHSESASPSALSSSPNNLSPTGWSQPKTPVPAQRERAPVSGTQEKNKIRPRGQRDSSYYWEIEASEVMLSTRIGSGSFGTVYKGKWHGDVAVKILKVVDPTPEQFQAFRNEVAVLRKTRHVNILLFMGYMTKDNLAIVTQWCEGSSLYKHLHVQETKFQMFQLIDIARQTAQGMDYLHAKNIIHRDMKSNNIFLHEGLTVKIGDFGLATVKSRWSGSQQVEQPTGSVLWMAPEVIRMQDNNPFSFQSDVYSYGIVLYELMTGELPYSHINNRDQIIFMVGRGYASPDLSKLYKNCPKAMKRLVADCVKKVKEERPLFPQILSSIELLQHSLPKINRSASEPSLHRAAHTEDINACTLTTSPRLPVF
- MEASUREMENT_DESCRIPTION: Protein kinase assay (33P-ATP filter binding), human RAF1, 10-dose IC50
- CONDITIONS: MEK1 (K97R) substrate 3 micromolar, ATP 10 micromolar, read-out: RAF-1 IC50
For each record, write down the corresponding IC50.

These recorded examples may help you get a feel for the data.
1) Cc1cc(F)c(NC(=O)N2CC(C)C(C(F)(F)F)C2)cc1-c1cc(OCCO)nc(N2CCOCC2)c1 (single isomer, unassigned) [Example 53]    < 10 nM
2) Cc1ccc(NC(=O)N2CC[C@H](OC(F)(F)F)C2)cc1-c1cc(OC(C)(C)CO)nc(N2CCOCC2)c1    < 10 nM
3) Cc1ccc(NC(=O)N2CC[C@H](OC(F)(F)F)C2)cc1-c1cc(O[C@H](C)[C@@H](C)O)nc(N2CCOCC2)c1    < 10 nM
4) Cc1ccc(NC(=O)N2CC=C(C(F)(F)F)C2)cc1-c1cc(O[C@H](C)[C@@H](C)O)nc(N2CCOCC2)c1    < 10 nM
5) Cc1ccc(NC(=O)N2CC[C@@H](SC(F)(F)F)C2)cc1-c1cc(OCCO)nc(N2CCOCC2)c1 (single isomer, unassigned)    < 10 nM

Next item in the queue.
# input Lab request: please report IC50 under test system human RAF1 (Homo sapiens) for Cc1cc(F)c(NC(=O)N2CCCCC(F)(F)C2)cc1-c1cc(OCCO)nc(N2CCOCC2)c1
# output 10 to 100 nM
